Reported cytotoxicity at 70.5 h by item:
# protocolText: Human HepG2 cell viability assay in 384 well format
# Type: toxicity, cell-based
# Set-up: dose 125 nL, time 70.5 hour; concentration not given beside the values
# reportedConditions: HepG2 cells, read-out: Inhibition
Please give a number only; it is taken to be in %.

molecule	cytotoxicity at 70.5 h / %
CC(C)(C)C(=O)N1CCC2(COCc3cnc(N4CCOCC4)nc32)C1 (configuration not stated)	-19.1
CN(C)c1ncccc1CNS(=O)(=O)c1ccc(F)c(F)c1	1.87
CC(NC1(CNC(=O)Cn2cccn2)CCOCC1)c1ccccc1 (configuration not stated)	-6.45
c1ccc(Cn2cccn2)c(CNCc2cnc(N3CCCC3)nc2)c1	-13.6
Cc1cc(NC(=O)C2CCN(c3nnc(C)c(C)c3C#N)CC2)no1	0.58
COC(=O)CCN(C)Cc1cc(Br)cs1	-21.1
c1ccc(COC[C@@H]2CCC[C@]23CN(Cc2nccs2)CCO3)nc1	5.78
Cc1ccc(OCCC(=O)N2CCOCC2c2ncon2)cc1C (configuration not stated)	-7.26

For COC(=O)C(NC(=O)c1ccc(C)cc1C)c1cccnc1 (configuration not stated) , what is its reported cytotoxicity at 70.5 h?
-7.04

For CC(=O)Nc1nc(C2CCN(C(C)C)CC2)cs1 , what is its reported cytotoxicity at 70.5 h?
-1.18

For Cc1nc(CC(=O)N2CCN(Cc3ccc(C#N)cc3)CC2)cs1 , what is its reported cytotoxicity at 70.5 h?
-1.78

For Cc1ccccc1OCC(=O)N1CCN(C2CCOC2=O)CC1 (configuration not stated) , what is its reported cytotoxicity at 70.5 h?
0.726

* * *

# protocolText: Human HepG2 cell viability assay in 384 well format
# Assay type: toxicity, cell-based
# Design: dose 125 nL, time 70.5 hour; concentration not given beside the values
# reportedConditions: HepG2 cells, read-out: Inhibition
measurementName: cytotoxicity at 70.5 h (%)
Please give a number only; it is taken to be in %.

# example entries with known answers
molecule	cytotoxicity at 70.5 h (%)
c1cn(-c2cnc(C3CCCNC3)cn2)cn1 (centres undefined)	22.8
Cc1ccc(CN(CCCn2ccnc2)Cc2cnc(N(C)C)nc2)s1	21.5
O=C(NC1CC2(CCN(CCO)CC2)Oc2ccccc21)c1csnn1 (centres undefined)	-0.338
CCCc1cnc(C)nc1N1CCC(Cn2cc(C(C)O)nn2)CC1 (centres undefined)	-13.9
COCC(=O)N1CCCCC1c1ccnc(Nc2ncc(C)s2)n1 (centres undefined)	-0.578

For CC(C)(C(=O)NCC(=O)NCc1ccccc1)c1ccccc1F , what is its reported cytotoxicity at 70.5 h?
3.35

For CCCN1CCCn2nc(CNC(=O)C3CCOC3)cc2C1 (centres undefined) , what is its reported cytotoxicity at 70.5 h?
-2.94

For CN1CC(NC(=O)Cc2csc(C(C)(C)C)n2)CCC1=O (centres undefined) , what is its reported cytotoxicity at 70.5 h?
20.1

* * *

# protocolText: Human HepG2 cell viability assay in 384 well format
# Format: toxicity, cell-based
# Set-up: dose 125 nL, time 70.5 hour; concentration not given beside the values
# reportedConditions: HepG2 cells, read-out: Inhibition
measurementName: cytotoxicity at 70.5 h
# do not omit the unit; it follows the number

For CCN1CCOC(CNCc2ccccc2OCc2ccccn2)C1 (configuration not stated) , what is its reported cytotoxicity at 70.5 h?
1.15%

For Cn1cc(C(=O)N2CCCN(C3Cc4ccccc4C3)CC2)cn1 , what is its reported cytotoxicity at 70.5 h?
-13.8%

For CCN(CC1CCOC1)C(=O)c1ccc(N(C)C)cc1F (configuration not stated) , what is its reported cytotoxicity at 70.5 h?
-1.53%

For CCCN(Cc1cnn(C)c1)S(=O)(=O)c1cc(C)cc(F)c1 , what is its reported cytotoxicity at 70.5 h?
23.3%

For Nc1cc(C(=O)N2CCCC(C(=O)CCc3ccccc3)C2)ccn1 (configuration not stated) , what is its reported cytotoxicity at 70.5 h?
-3.17%

For CC(C)Nc1ncnc2c1CCNCC2 , what is its reported cytotoxicity at 70.5 h?
2.95%

For CC(C)CNC(=O)CN(Cc1ccc(F)cc1)S(C)(=O)=O , what is its reported cytotoxicity at 70.5 h?
-5.67%

For Cc1nc(C)c(C(=O)N2CCc3c(Cl)cccc32)o1 , what is its reported cytotoxicity at 70.5 h?
1.38%

For Cc1nc(CNC(=O)Nc2cc(F)ccc2N2CCN(C)CC2)no1 , what is its reported cytotoxicity at 70.5 h?
-2.28%

For N#Cc1ccsc1NC(=O)CCN1CCn2c(nnc2C2CC2)C1 , what is its reported cytotoxicity at 70.5 h?
-7.52%

For CO[C@@H]1CC[C@H]2[C@H]1OCCN2C(=O)COc1ccc(C)cc1 , what is its reported cytotoxicity at 70.5 h?
-4.98%

For CCc1n[nH]c(C(=O)NCCn2ccc(C)n2)c1C , what is its reported cytotoxicity at 70.5 h?
17.6%
